# assay: Toxicity (LD50) in healthy CD2F1 female mice, 14 days observation
# assay-setup: mouse, in vivo; TI from LD50 (healthy CD2F1 mice) and ED50 (L1210 leukemic CD2F1 mice); read-out: Therapeutic index
# selectivity ratio values compiled below
Please give only the number in your answer, with no unit.

Past entries and their recorded results:
>>> data_value("O=P1(NCCBr)OCCCN1CCBr (stereo not drawn)")
10.7
>>> data_value("O=P1(NCCCl)OCCCN1CCCl (stereo not drawn) [X=Cl, Y=Cl, reference compound]")
6.6

Now consider a different compound.
Request: # input compound: O=P1(NCCCl)OCCCN1CCBr (stereo not drawn) ; wanted: its selectivity ratio
Response: 11.6

Data origin, for the record: patent US4684742A
